# Test system: Rattus norvegicus
# Test Description: Pressor activity in iv dosed normotensive Sprague-Dawley rat assessed as dose required for increasing systolic blood pressure […] 30 mm Hg
# Type: organism-based, Artery
# Condition Label: in vivo
Measurement Name: Activity

{"Compound": "Cl.NCCc1cc(O)c(O)cc1S", "Measurement Name": "Activity", "Result": "1.3 ×10⁻⁴ g"}
{"Compound": "NCCc1cc(O)c(O)cc1O [OXIDOPAMINE]", "Measurement Name": "Activity", "Result": "1.6 ×10⁻⁵ g"}
{"Compound": "CC(N)Cc1cc(O)c(O)cc1O (stereo not given)", "Measurement Name": "Activity", "Result": "6 ×10⁻⁵ g"}
{"Compound": "NCCc1ccc(O)c(O)c1 [DOPAMINE]", "Measurement Name": "Activity", "Result": "2.9 µg"}

**Q:** Output measured Activity for this item: `C[C@H](N)Cc1ccc(O)c(O)c1`
**A:** 3.1 µg

All figures here come from ChEMBL document CHEMBL3243922.
